SYSTEM: DNMT1 full-length (Homo sapiens, UniProt P26358 SEQ:1-1616)
Sequence (P26358 whole entry): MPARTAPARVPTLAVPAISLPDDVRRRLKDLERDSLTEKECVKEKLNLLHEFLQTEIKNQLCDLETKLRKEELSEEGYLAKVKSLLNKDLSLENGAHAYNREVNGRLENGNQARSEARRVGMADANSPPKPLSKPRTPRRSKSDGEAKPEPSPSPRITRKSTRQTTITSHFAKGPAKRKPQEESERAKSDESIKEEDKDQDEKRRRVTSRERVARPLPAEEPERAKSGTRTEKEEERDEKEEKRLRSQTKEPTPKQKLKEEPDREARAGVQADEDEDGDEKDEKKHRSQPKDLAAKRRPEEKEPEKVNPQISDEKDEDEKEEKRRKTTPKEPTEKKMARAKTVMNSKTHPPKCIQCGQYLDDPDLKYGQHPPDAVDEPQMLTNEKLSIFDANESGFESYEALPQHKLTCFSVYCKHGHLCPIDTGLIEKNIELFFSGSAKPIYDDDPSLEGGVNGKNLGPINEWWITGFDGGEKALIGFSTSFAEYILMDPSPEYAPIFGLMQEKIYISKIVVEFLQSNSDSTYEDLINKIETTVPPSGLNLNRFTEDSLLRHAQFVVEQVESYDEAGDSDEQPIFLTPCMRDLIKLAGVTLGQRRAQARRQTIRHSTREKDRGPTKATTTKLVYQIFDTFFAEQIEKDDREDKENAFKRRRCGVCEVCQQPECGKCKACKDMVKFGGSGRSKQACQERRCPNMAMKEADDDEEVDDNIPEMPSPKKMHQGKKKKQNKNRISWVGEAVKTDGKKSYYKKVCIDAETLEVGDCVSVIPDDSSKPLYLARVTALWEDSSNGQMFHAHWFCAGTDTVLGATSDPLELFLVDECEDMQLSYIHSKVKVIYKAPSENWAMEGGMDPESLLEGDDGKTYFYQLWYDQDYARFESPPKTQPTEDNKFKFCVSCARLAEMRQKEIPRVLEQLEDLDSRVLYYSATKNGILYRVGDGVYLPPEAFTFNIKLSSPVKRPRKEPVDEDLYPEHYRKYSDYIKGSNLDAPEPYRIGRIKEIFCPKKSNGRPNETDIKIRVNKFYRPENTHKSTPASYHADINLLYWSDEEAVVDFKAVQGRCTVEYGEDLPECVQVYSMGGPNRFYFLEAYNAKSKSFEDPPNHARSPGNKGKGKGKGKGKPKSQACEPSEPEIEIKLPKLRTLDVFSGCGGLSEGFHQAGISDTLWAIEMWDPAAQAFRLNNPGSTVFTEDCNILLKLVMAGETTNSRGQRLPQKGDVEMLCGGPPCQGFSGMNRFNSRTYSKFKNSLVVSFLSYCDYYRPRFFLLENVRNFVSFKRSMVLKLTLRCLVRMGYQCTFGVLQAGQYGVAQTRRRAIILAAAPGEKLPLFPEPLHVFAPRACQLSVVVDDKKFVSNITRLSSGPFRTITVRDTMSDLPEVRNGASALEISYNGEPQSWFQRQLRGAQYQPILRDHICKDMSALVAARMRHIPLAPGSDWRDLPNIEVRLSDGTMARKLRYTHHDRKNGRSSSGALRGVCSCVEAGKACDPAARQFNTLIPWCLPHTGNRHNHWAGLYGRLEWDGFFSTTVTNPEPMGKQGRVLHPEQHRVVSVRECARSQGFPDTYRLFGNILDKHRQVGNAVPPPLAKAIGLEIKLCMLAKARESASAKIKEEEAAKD
ASSAY_NAME: inhibition; competitive vs hemimethylated DNA
TEST_CONDITIONS: tags: baculovirus Sf9; label: 5'-33P in pull-down; stem-loop
Reported Ki values for the following binders.
All answers are understood in nM, so give the number only.

# BINDER, RESULT_UNITS, Ki
measured = [
    ("GCCAGUGGCGAGGGGCGGCGCGG (ssRNA) [asCEBPα-2]", "nM", 434),
]

Please find the next binder below.
May I ask what Ki has been recorded for CCGGGACGCAGGCGGCGUCAGGC (ssRNA) [asCEBPα-1] ?
2000
